# System: Aspergillus fumigatus
# TEST DETAILS: Antimicrobial activity against Aspergillus fumigatus 7544 after 48 hrs by serial dilution method
# Type: functional
# CONDITION CONTEXT: Aspergillus fumigatus, 7544, 48 h
Lab note: cut-off is 20 µg/mL. Strictly less in MIC is met. Exactly 20 µg/mL or more is not met.

SMILES CODE: C[C@@H](N1CCn2cc(-c3cccc(C(F)(F)F)c3)nc2C1)[C@](O)(Cn1cncn1)c1ccc(F)cc1F
CLASSIFICATION: not met
--
SMILES CODE: C[C@@H](N1CCc2cc(-c3ccncc3)sc2C1)[C@](O)(Cn1cncn1)c1ccc(F)cc1F
CLASSIFICATION: not met
--
SMILES CODE: Cc1nnn2c1CN([C@H](C)[C@](O)(Cn1cncn1)c1ccc(F)cc1F)CC2
CLASSIFICATION: met
--
SMILES CODE: C[C@@H](N1CCn2nc(-c3ccco3)nc2C1)[C@](O)(Cn1cncn1)c1ccc(F)cc1F
CLASSIFICATION: met
--
SMILES CODE: Cc1ccc(-c2nc3n(n2)CCN([C@H](C)[C@](O)(Cn2cncn2)c2ccc(F)cc2F)C3)cc1
CLASSIFICATION: not met
--
SMILES CODE: C[C@@H](N1CCc2cc(-c3cncnc3)sc2C1)[C@](O)(Cn1cncn1)c1ccc(F)cc1F
CLASSIFICATION: met
--
SMILES CODE: C[C@@H](N1CCc2nc(-c3cccs3)sc2C1)[C@](O)(Cn1cncn1)c1ccc(F)cc1F
CLASSIFICATION: met
--
SMILES CODE: C[C@@H](N1CCc2cc(-c3cccnc3)sc2C1)[C@](O)(Cn1cncn1)c1ccc(F)cc1F
CLASSIFICATION: met
--
SMILES CODE: C[C@@H](N1CCc2nc(-c3cncnc3)sc2C1)[C@](O)(Cn1cncn1)c1ccc(F)cc1F
CLASSIFICATION: met
--
SMILES CODE: C[C@@H](N1CCn2nc(-c3ccc(Br)cc3)nc2C1)[C@](O)(Cn1cncn1)c1ccc(F)cc1F
CLASSIFICATION: met
--
SMILES CODE: CC(C)c1ccc(-c2nc3c(s2)CN([C@H](C)[C@](O)(Cn2cncn2)c2ccc(F)cc2F)CC3)cc1
CLASSIFICATION: met
--
SMILES CODE: COc1ncc(-c2nc3n(n2)CCN([C@H](C)[C@](O)(Cn2cncn2)c2ccc(F)cc2F)C3)cn1
CLASSIFICATION: not met
--
SMILES CODE: C[C@@H](N1CCc2sc(-c3ccc(C#N)cc3)cc2C1)[C@](O)(Cn1cncn1)c1ccc(F)cc1F
CLASSIFICATION: not met
--
SMILES CODE: C[C@@H](N1CCn2nc(-c3cncc(F)c3)nc2C1)[C@](O)(Cn1cncn1)c1ccc(F)cc1F
CLASSIFICATION: not met
--
SMILES CODE: C[C@@H](N1CCn2nc(-c3cccc(Cl)c3)nc2C1)[C@](O)(Cn1cncn1)c1ccc(F)cc1F
CLASSIFICATION: not met
--
SMILES CODE: C[C@@H](N1CCc2sc(Br)cc2C1)[C@](O)(Cn1cncn1)c1ccc(F)cc1F
CLASSIFICATION: not met
